Listing of entries alongside the reported pIC50.
- measured.on: human recombinant GCL (Homo sapiens (Human), UniProt P48506)
- Sequence (P48506 whole entry): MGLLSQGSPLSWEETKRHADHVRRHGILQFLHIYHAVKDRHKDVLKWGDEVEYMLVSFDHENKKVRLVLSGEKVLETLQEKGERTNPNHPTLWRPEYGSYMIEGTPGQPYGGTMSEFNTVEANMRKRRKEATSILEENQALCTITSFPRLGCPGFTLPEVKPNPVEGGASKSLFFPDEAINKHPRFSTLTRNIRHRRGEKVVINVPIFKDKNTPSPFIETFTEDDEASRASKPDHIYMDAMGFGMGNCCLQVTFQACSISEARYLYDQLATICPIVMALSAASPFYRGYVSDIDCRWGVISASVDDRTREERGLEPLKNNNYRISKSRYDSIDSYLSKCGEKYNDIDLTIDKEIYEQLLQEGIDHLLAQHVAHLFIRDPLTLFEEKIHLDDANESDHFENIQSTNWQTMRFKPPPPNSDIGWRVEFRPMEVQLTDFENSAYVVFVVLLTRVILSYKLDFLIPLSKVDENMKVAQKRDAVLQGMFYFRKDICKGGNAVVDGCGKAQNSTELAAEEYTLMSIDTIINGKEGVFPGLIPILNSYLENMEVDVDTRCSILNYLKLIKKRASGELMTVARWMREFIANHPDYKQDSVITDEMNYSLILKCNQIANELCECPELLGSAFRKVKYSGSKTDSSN
- experimental.details: GCL enzyme profiling assay (ADP-Glo luminescence)
- Format: biochemical
- recorded.conditions: human recombinant GCL, ADP-Glo; read-out: GCL IC50
pIC50: −log10 of the molar value.
recorded.endpoint: pIC50

compound	endpoint.value
N=S(=O)(CC[C@H](N)C(=O)O)CCC(O)(c1ccc(Cc2ccc(Cl)cc2Cl)cc1)C(F)(F)F (stereo partly shown)	≥ 4.70
N=S(=O)(CC[C@H](N)C(=O)O)CCC(O)(c1ccc(-c2ccc(C(F)(F)F)cc2C(F)(F)F)cc1)C(F)(F)F (stereo partly shown)	≥ 4.70
Cc1noc(C)c1-c1ccc(C(O)(CCS(=N)(=O)CC[C@H](N)C(=O)O)C(F)(F)F)cc1 (stereo partly shown)	≥ 4.70
CC(C)(C)c1nnc(-c2ccc(C(O)(CCS(=N)(=O)CC[C@H](N)C(=O)O)C(F)(F)F)cc2)o1 (stereo partly shown)	2.70 to 4.70
CC(C)(C)c1cc(-c2ccc(C(O)(CCS(=N)(=O)CC[C@H](N)C(=O)O)C(F)(F)F)cc2)ccc1O (stereo partly shown)	≥ 4.70
N=S(=O)(CCC(n1cccn1)C(F)(F)F)CC[C@H](N)C(=O)O (stereo partly shown)	2.70 to 4.70
N=S(=O)(C/C=C(\CC(F)(F)F)c1ccc(-c2ccc(Cl)cc2Cl)cc1)CC[C@H](N)C(=O)O (stereo partly shown)	2.70 to 4.70

----------
- measured.on: human recombinant GCL (Homo sapiens (Human), UniProt P48506)
- experimental.details: GCL enzyme profiling assay (ADP-Glo luminescence)
- Format: biochemical
- recorded.conditions: human recombinant GCL, ADP-Glo; read-out: GCL IC50
pIC50: −log10 of the molar value.
recorded.endpoint: pIC50

compound	recorded.endpoint	endpoint.value
CCCCc1ccc(C(CCS(=N)(=O)CC[C@H](N)C(=O)O)C(F)(F)F)cc1 (some centres unmarked)	pIC50	≥ 4.70
CCOC(=O)[C@@H](N)CC[S@@](=N)(=O)CC[C@@H](O)C(F)(F)F	pIC50	2.70 to 4.70
N=S(=O)(CC[C@H](N)C(=O)O)CCC(O)(c1ccc(OC(F)(F)F)cc1)C(F)(F)F (some centres unmarked)	pIC50	≥ 4.70
N=S(=O)(CCC(C(F)(F)F)C12CC(C1)C2)CC[C@H](N)C(=O)O (some centres unmarked)	pIC50	≥ 4.70
N=S(=O)(CCC(c1ccc2ccccc2c1)C(F)(F)F)CC[C@H](N)C(=O)O (some centres unmarked)	pIC50	≥ 4.70
CC(O)(CCS(=N)(=O)CC[C@H](N)C(=O)O)C1CCC1 (some centres unmarked)	pIC50	2.70 to 4.70
N=S(=O)(CC[C@H](N)C(=O)O)CCC(O)(c1ccc(-c2ccc(Cl)cc2Cl)cn1)C(F)(F)F (some centres unmarked) [Compound 463]	pIC50	≥ 4.70
N=S(=O)(CC[C@H](N)C(=O)O)CCC(O)(c1ccc(-c2ccc(O)c(F)c2)cc1)C(F)(F)F (some centres unmarked)	pIC50	≥ 4.70

----------
- measured.on: human recombinant GCL (Homo sapiens (Human), UniProt P48506)
- experimental.details: GCL enzyme profiling assay (ADP-Glo luminescence)
- Type: biochemical
- recorded.conditions: human recombinant GCL, ADP-Glo; read-out: GCL IC50
pIC50: −log10 of the molar value.

molecule	pIC50
N=[S@@](=O)(CC[C@H](N)C(=O)O)CCC1(CO)CCC1 [compound 515]	≥ 4.70
N=S(=O)(CC[C@H](N)C(=O)O)CCC1(O)CCCCC1 (some centres unmarked) [Compound 297]	2.70 to 4.70
N=S(=O)(CC[C@H](N)C(=O)O)CCC1(c2ncc(-c3ccc(Cl)cc3Cl)cn2)CCC1 (some centres unmarked) [Compound 498]	≥ 4.70
N=S(=O)(CC[C@H](N)C(=O)O)CCC(O)(C(F)(F)F)C12CC(C1)C2 (some centres unmarked) [Compound 359]	2.70 to 4.70
N=S(=O)(CC[C@H](N)C(=O)O)CCC1(c2ccc(-c3ccc(O)cc3Cl)cc2)CCC1 (some centres unmarked) [Compound 401]	≥ 4.70
N=S(=O)(CC[C@H](N)C(=O)O)CCC(O)(c1nc2ccccc2o1)C(F)(F)F (some centres unmarked) [compound 502]	≥ 4.70
N=[S@SP2](=O)(CCC(N)C(=O)O)CCC(c1ccc(-c2ccccc2)cc1)(C(F)(F)F)C(F)(F)F (centres unmarked) [compound 509]	≥ 4.70
N=S(=O)(CC[C@H](N)C(=O)O)CCC(O)(c1ccc(-c2ccccc2O)cc1)C(F)(F)F (some centres unmarked) [Compound 434]	≥ 4.70
CCOC(=O)[C@@H](N)CC[S@@](=N)(=O)CC[C@@](C)(O)C(F)(F)F [Compound 487]	2.70 to 4.70
N=[S@SP2](=O)(CCC(N)C(=O)O)CCC(c1ccccc1)(C(F)(F)F)C(F)(F)F (centres unmarked) [compound 508]	2.70 to 4.70
N=S(=O)(CCC(Cc1ccccc1)C(F)(F)F)CC[C@H](N)C(=O)O (some centres unmarked) [Compound 292]	≥ 4.70
N=S(=O)(CC[C@H](N)C(=O)O)CCC(O)(c1ccc(Oc2ccc(Cl)cc2Cl)cn1)C(F)(F)F (some centres unmarked) [Compound 380]	≥ 4.70
N=S(=O)(CCC(C1CCCCC1)C(F)(F)F)CC[C@H](N)C(=O)O (some centres unmarked) [Compound 381]	≥ 4.70
COc1cncc(-c2ccc(C(CCS(=N)(=O)CC[C@H](N)C(=O)O)C(F)(F)F)cc2)c1 (some centres unmarked) [Compound 242]	≥ 4.70
N=S(=O)(CCC(C(=O)O)C(F)(F)F)CC[C@H](N)C(=O)O (some centres unmarked) [Compound 306]	≥ 4.70
N=S(=O)(CC[C@H](N)C(=O)O)CCC(O)(c1ccc(C2CC2)cn1)C(F)(F)F (some centres unmarked) [Compound 475]	2.70 to 4.70
N=S(=O)(CCC(n1ncc(-c2cccnc2)n1)C(F)(F)F)CC[C@H](N)C(=O)O (some centres unmarked) [Compound 408]	≥ 4.70
N=S(=O)(CCC(c1ccc(S(=O)(=O)Nc2ccccc2)cc1)C(F)(F)F)CC[C@H](N)C(=O)O (some centres unmarked) [compound 499]	≥ 4.70
CS(=O)(=O)c1ccc(-c2ccc(C(O)(CCS(=N)(=O)CC[C@H](N)C(=O)O)C(F)(F)F)cc2)c(Cl)c1 (some centres unmarked) [Compound 442]	≥ 4.70
N=S(=O)(CC[C@@H](O)C(F)(F)F)CC[C@H](N)C(=O)O (single isomer, unassigned) [Compound 329]	< 2.70
N=S(=O)(CC[C@H](N)C(=O)O)CCC(O)(c1cccnc1)C(F)(F)F (some centres unmarked) [Compound 361]	2.70 to 4.70
Cc1cc(Cl)ccc1-c1ccc(C(O)(CCS(=N)(=O)CC[C@H](N)C(=O)O)C(F)(F)F)nc1 (some centres unmarked) [Compound 478]	≥ 4.70
COC(C)(C)CCCS(=N)(=O)CC[C@H](N)C(=O)O (some centres unmarked) [Compound 295]	2.70 to 4.70
N=S(=O)(CCC(c1ccc(C#Cc2ccccc2)cc1)C(F)(F)F)CC[C@H](N)C(=O)O (some centres unmarked) [Compound 215]	≥ 4.70
N=S(=O)(CCC(n1ccc(C2CC2)n1)C(F)(F)F)CC[C@H](N)C(=O)O (some centres unmarked) [Compound 413]	2.70 to 4.70
N=S(=O)(CC[C@H](N)C(=O)O)CCC1(n2nc3ccccc3n2)CCC1 (some centres unmarked) [Compound 421]	≥ 4.70
CCCc1ccc(C(CCS(=N)(=O)CC[C@H](N)C(=O)O)C(F)(F)F)cc1 (some centres unmarked) [Compound 223]	≥ 4.70
N=S(=O)(CC[C@H](N)C(=O)O)CCC(O)(c1nccs1)C(F)(F)F (some centres unmarked) [Compound 344]	≥ 4.70
N=S(=O)(CC[C@H](N)C(=O)O)CCC(O)(c1ccc(-c2ccc(Cl)cc2Cl)cc1)C(F)(F)F (some centres unmarked) [Compound 428]	≥ 4.70
N[C@@H](CCS(=O)(=O)CCC(O)(c1ccc(-c2ccc(Cl)cc2Cl)cc1)C(F)(F)F)C(=O)O (some centres unmarked) [Compound 427]	2.70 to 4.70
N=S(=O)(CC[C@H](N)C(=O)O)CCC(O)(c1ccccn1)C(F)(F)F (some centres unmarked) [Compound 350]	≥ 4.70
N[C@@H](CCS(=O)(=O)CCC(O)(c1ccccn1)C(F)(F)F)C(=O)O (some centres unmarked) [Compound 351]	≥ 4.70

----------
- measured.on: human recombinant GCL (Homo sapiens (Human), UniProt P48506)
- experimental.details: GCL enzyme profiling assay (ADP-Glo luminescence)
- Assay type: biochemical
- recorded.conditions: human recombinant GCL 5 nM, 1 h preincubation with ATP; read-out: GCL IC50
pIC50: −log10 of the molar value.
recorded.endpoint: pIC50

compound	measured.on	recorded.endpoint	endpoint.value
COCCS(=N)(=O)CC[C@H](N)C(=O)O (stereo partly drawn)	human recombinant GCL (Homo sapiens (Human), UniProt P48506)	pIC50	2.70 to 4.70
N=S(=O)(CCC(c1c[nH]c2ccccc12)C(F)(F)F)CC[C@H](N)C(=O)O (stereo partly drawn)	human recombinant GCL (Homo sapiens (Human), UniProt P48506)	pIC50	≥ 4.70
COC(=O)[C@@H](N)CCS(=N)(=O)CCc1ccccc1 (stereo partly drawn)	human recombinant GCL (Homo sapiens (Human), UniProt P48506)	pIC50	2.70 to 4.70
N=S(=O)(CCC(c1ccc(-c2ccccc2)cc1)C(F)(F)F)CC[C@H](N)C(=O)O (stereo partly drawn)	human recombinant GCL (Homo sapiens (Human), UniProt P48506)	pIC50	≥ 4.70
N=S(=O)(CCc1cccc2ccccc12)CC[C@H](N)C(=O)O (stereo partly drawn)	human recombinant GCL (Homo sapiens (Human), UniProt P48506)	pIC50	≥ 4.70
N=S(=O)(CCC(O)C(F)(F)F)CC[C@H](N)C(=O)O (stereo partly drawn)	human recombinant GCL (Homo sapiens (Human), UniProt P48506)	pIC50	≥ 4.70
N=S(=O)(CCCCc1ccccc1)CC[C@H](N)C(=O)O (stereo partly drawn)	human recombinant GCL (Homo sapiens (Human), UniProt P48506)	pIC50	2.70 to 4.70
Cc1noc(C)c1CCS(=N)(=O)CC[C@H](N)C(=O)O (stereo partly drawn)	human recombinant GCL (Homo sapiens (Human), UniProt P48506)	pIC50	2.70 to 4.70
CC(C)(CCS(=N)(=O)CC[C@H](N)C(=O)O)c1ccccc1Cl (stereo partly drawn)	human recombinant GCL (Homo sapiens (Human), UniProt P48506)	pIC50	2.70 to 4.70
